Reference source for all entries: patent US20150374676A1

experimental.details: Single-dose escalation pharmacokinetics in volunteers
Format: in vivo, human
test.conditions: plasma; single oral dose 10 mg free base equivalent; human; median, n = 6; read-out: tmax
measured.quantity: Tmax (h)
Please give a number only; it is taken to be in h.

Ask: # lookup: Tmax of CS(=O)(=O)O.Cc1nc(N(C)C(=O)Cc2ccc(-c3ccccn3)cc2)sc1S(N)(=O)=O [mono mesylate monohydrate salt]
Result: 1.5

----------
experimental.details: Single-dose escalation pharmacokinetics in volunteers
Format: in vivo, human
test.conditions: human, plasma; 80 mg dosage as free base equivalent, single oral dose; read-out: AUC0-24h
measured.quantity: AUC(0-t) (ng·h/mL)
Provide the reading as a plain figure in ng·h/mL.

Ask: Data request, read-out AUC(0-t), for CS(=O)(=O)O.Cc1nc(N(C)C(=O)Cc2ccc(-c3ccccn3)cc2)sc1S(N)(=O)=O [mono mesylate monohydrate salt]
Result: 21900

----------
experimental.details: Single-dose escalation pharmacokinetics in volunteers
Format: in vivo, human
test.conditions: human, plasma; 480 mg dosage as free base equivalent, single oral dose; read-out: AUC0-24h
measured.quantity: AUC(0-t) (µg·h/mL)
# number only, unit µg·h/mL dropped from output

Ask: Look up AUC(0-t): CS(=O)(=O)O.Cc1nc(N(C)C(=O)Cc2ccc(-c3ccccn3)cc2)sc1S(N)(=O)=O [mono mesylate monohydrate salt]
Result: 113

----------
experimental.details: Single-dose escalation pharmacokinetics in volunteers
Assay type: in vivo, human
test.conditions: plasma; single oral dose 320 mg free base equivalent; human; mean, n = 6
measured.quantity: MRT (h)
Answer format: numeric, h implied, no suffix.

Ask: Consider the molecule shown here: CS(=O)(=O)O.Cc1nc(N(C)C(=O)Cc2ccc(-c3ccccn3)cc2)sc1S(N)(=O)=O [mono mesylate monohydrate salt] What is its recorded MRT?
Result: 70

----------
experimental.details: Single-dose escalation pharmacokinetics in volunteers
Assay type: in vivo, human
test.conditions: human, plasma; 320 mg dosage as free base equivalent, single oral dose; read-out: mean maximum blood plasma concentration (mean Cmax) of the free base
measured.quantity: Cmax (ng/mL)
Provide the reading as a plain figure in ng/mL.

Ask: Look up Cmax for this molecule: CS(=O)(=O)O.Cc1nc(N(C)C(=O)Cc2ccc(-c3ccccn3)cc2)sc1S(N)(=O)=O [mono mesylate monohydrate salt]
Result: 4650

----------
experimental.details: Single-dose escalation pharmacokinetics in volunteers
Type: in vivo, human
test.conditions: human, plasma; 400 mg dosage as free base equivalent, single oral dose; read-out: AUC0-24h
measured.quantity: AUC(0-t)
Could you kindly put the unit after your number?

Ask: For the compound shown here, CS(=O)(=O)O.Cc1nc(N(C)C(=O)Cc2ccc(-c3ccccn3)cc2)sc1S(N)(=O)=O [mono mesylate monohydrate salt] , give the reported AUC(0-t).
Result: 105 µg·h/mL

----------
experimental.details: Single-dose escalation pharmacokinetics in volunteers
Assay type: in vivo, human
test.conditions: single oral dose 240 mg free base equivalent; human; mean, n = 6; free base in plasma
measured.quantity: AUC(0-inf) (µg·h/mL)
Please give a number only; it is taken to be in µg·h/mL.

Ask: Quick one: AUC(0-inf) for CS(=O)(=O)O.Cc1nc(N(C)C(=O)Cc2ccc(-c3ccccn3)cc2)sc1S(N)(=O)=O [mono mesylate monohydrate salt] ?
Result: 217

----------
experimental.details: Single-dose escalation pharmacokinetics in volunteers
Assay type: in vivo, human
test.conditions: single oral dose 600 mg free base equivalent; human; mean, n = 6; free base in plasma
Text: Exposure of the free base form of N-[5-(aminosulfonyl)-4-methyl-1,3-thiazol-2-yl]-N-methyl-2-[4-(2-pyridinyl)-phenyl]acetamide to the human body may be measured by high pressure liquid chromatography (HPLC) by looking at different pharmacokinetic parameters in suitable bodily fluids such as for instance blood plasma and urine, the most common parameters being the Cmax, the so-called area under the curve (AUC), and the terminal half-life (t1/2Z). […]
measured.quantity: AUC(0-inf) (µg·h/mL)
Write the answer as a number in µg·h/mL, unit excluded.

Ask: Need AUC(0-inf) of CS(=O)(=O)O.Cc1nc(N(C)C(=O)Cc2ccc(-c3ccccn3)cc2)sc1S(N)(=O)=O [mono mesylate monohydrate salt] , thanks.
Result: 321

----------
experimental.details: fraction unbound in murine plasma
Assay type: in vitro ADME
test.conditions: mouse
measured.quantity: fraction unbound
Form field (numeric): enter value without unit.

Ask: State the recorded fraction unbound for this entry: CS(=O)(=O)O.Cc1nc(N(C)C(=O)Cc2ccc(-c3ccccn3)cc2)sc1S(N)(=O)=O [mono mesylate monohydrate salt]
Result: 0.028

----------
experimental.details: Single-dose escalation pharmacokinetics in volunteers
Type: in vivo, human
test.conditions: plasma; single oral dose 320 mg free base equivalent; human; median, n = 6; read-out: tmax
measured.quantity: Tmax (h)
Note: unit h is implicit; provide only the numeric part.

Ask: May I ask what Tmax has been recorded for CS(=O)(=O)O.Cc1nc(N(C)C(=O)Cc2ccc(-c3ccccn3)cc2)sc1S(N)(=O)=O [mono mesylate monohydrate salt] ?
Result: 2.25

----------
experimental.details: Single-dose escalation pharmacokinetics in volunteers
Type: in vivo, human
test.conditions: plasma; single oral dose 600 mg free base equivalent; human; median, n = 6; read-out: tmax
measured.quantity: Tmax (h)
A number alone suffices; assume h.

Ask: So what does the record say about Tmax for CS(=O)(=O)O.Cc1nc(N(C)C(=O)Cc2ccc(-c3ccccn3)cc2)sc1S(N)(=O)=O [mono mesylate monohydrate salt] ?
Result: 4.25

----------
experimental.details: Multiple-dose escalation, steady state pharmacokinetics in healthy volunteers
Type: in vivo, human
test.conditions: human, plasma, oral; 100 mg dosage as free base equivalent, steady state after once daily single doses for 21 days; read-out: mean maximum blood plasma concentration at steady state (mean Cmax,ss) of the free base
measured.quantity: Cmax (ng/mL)
The answer is to be given in ng/mL; state only the numeric part.

Ask: Which value of Cmax has been reported for CS(=O)(=O)O.Cc1nc(N(C)C(=O)Cc2ccc(-c3ccccn3)cc2)sc1S(N)(=O)=O [mono mesylate monohydrate salt] in the records?
Result: 6360

----------
experimental.details: Single-dose escalation pharmacokinetics in volunteers
Type: in vivo, human
test.conditions: single oral dose 480 mg free base equivalent; human; mean, n = 6; free base in plasma
measured.quantity: AUC(0-inf) (µg·h/mL)
Respond with the bare value in µg·h/mL.

Ask: Which AUC(0-inf) is reported for this molecule? CS(=O)(=O)O.Cc1nc(N(C)C(=O)Cc2ccc(-c3ccccn3)cc2)sc1S(N)(=O)=O [mono mesylate monohydrate salt]
Result: 387

----------
experimental.details: Single-dose escalation pharmacokinetics in volunteers
Assay type: in vivo, human
test.conditions: plasma; single oral dose 600 mg free base equivalent; human; mean, n = 6
Source text: Exposure of the free base form of N-[5-(aminosulfonyl)-4-methyl-1,3-thiazol-2-yl]-N-methyl-2-[4-(2-pyridinyl)-phenyl]acetamide to the human body may be measured by high pressure liquid chromatography (HPLC) by looking at different pharmacokinetic parameters in suitable bodily fluids such as for instance blood plasma and urine, the most common parameters being the Cmax, the so-called area under the curve (AUC), and the terminal half-life (t1/2Z). […]
measured.quantity: MRT (h)
Express your answer in h, writing the number without its unit.

Ask: Entry CS(=O)(=O)O.Cc1nc(N(C)C(=O)Cc2ccc(-c3ccccn3)cc2)sc1S(N)(=O)=O [mono mesylate monohydrate salt] : reported MRT = ?
Result: 65

----------
experimental.details: Multiple-dose escalation, steady state pharmacokinetics in healthy volunteers
Assay type: in vivo, human
test.conditions: human, plasma, oral; 100 mg dosage as free base equivalent, steady state after once daily single doses for 21 days
measured.quantity: AUC (µg·h/mL)
Only the number, expressed in µg·h/mL, is required.

Ask: Dear colleague, I am looking for the recorded AUC of the following compound: CS(=O)(=O)O.Cc1nc(N(C)C(=O)Cc2ccc(-c3ccccn3)cc2)sc1S(N)(=O)=O [mono mesylate monohydrate salt]
Result: 109

----------
experimental.details: Single-dose escalation pharmacokinetics in volunteers
Type: in vivo, human
test.conditions: plasma; single oral doses 5-600 mg free base equivalent; human; read-out: mean terminal elimination half-life (t1/2z), range over doses
measured.quantity: half-life

Ask: Reported half-life for CS(=O)(=O)O.Cc1nc(N(C)C(=O)Cc2ccc(-c3ccccn3)cc2)sc1S(N)(=O)=O [mono mesylate monohydrate salt] : what is it?
Result: 52 to 85 h

----------
experimental.details: Single-dose escalation pharmacokinetics in volunteers
Assay type: in vivo, human
test.conditions: plasma; single oral dose 5 mg free base equivalent; human; mean, n = 6
measured.quantity: MRT
# answer = value followed by unit

Ask: What value of MRT has been reported for the following compound? CS(=O)(=O)O.Cc1nc(N(C)C(=O)Cc2ccc(-c3ccccn3)cc2)sc1S(N)(=O)=O [mono mesylate monohydrate salt]
Result: 117 h

----------
experimental.details: Single-dose escalation pharmacokinetics in volunteers
Assay type: in vivo, human
test.conditions: single oral dose 5 mg free base equivalent; human; mean, n = 6; free base in plasma
Excerpt: Exposure of the free base form of N-[5-(aminosulfonyl)-4-methyl-1,3-thiazol-2-yl]-N-methyl-2-[4-(2-pyridinyl)-phenyl]acetamide to the human body may be measured by high pressure liquid chromatography (HPLC) by looking at different pharmacokinetic parameters in suitable bodily fluids such as for instance blood plasma and urine, the most common parameters being the Cmax, the so-called area under the curve (AUC), and the terminal half-life (t1/2Z). […]
measured.quantity: AUC(0-inf) (ng·h/mL)
Answer with a number only, understood to be in ng·h/mL.

Ask: I would be grateful if you could share the reported AUC(0-inf) for CS(=O)(=O)O.Cc1nc(N(C)C(=O)Cc2ccc(-c3ccccn3)cc2)sc1S(N)(=O)=O [mono mesylate monohydrate salt] .
Result: 5800
